test system: Plasmodium falciparum; assay: In vitro inhibition of Plasmodium falciparum at 0.25 uM/well dose at 72 hrs in total parasite growth assay; format: functional
Experimental Endpoint: PGI (%)

# Molecule, Tested System, Numeric Result
data = [
    ("C=C(C#N)C(O)c1cccnc1 (stereo not drawn)", "Plasmodium falciparum", 20),
    ("C=C(C(=O)OC)C(O)c1cccnc1 (stereo not drawn)", "Plasmodium falciparum", 5),
    ("C=C(C(=O)OC)C(O)c1ccco1 (stereo not drawn)", "Plasmodium falciparum", 0),
    ("COC(=O)C(CNC(C)C)C(O)c1ccc([N+](=O)[O-])cc1 (stereo not drawn)", "Plasmodium falciparum", 0),
    ("C=C(C#N)C(O)c1cc(OC)c(OC)c(OC)c1 (stereo not drawn)", "Plasmodium falciparum", 73),
    ("C=C(C(=O)OC)C(O)c1ccccc1 (stereo not drawn)", "Plasmodium falciparum", 0),
    ("C=C(C#N)C(OCCC#N)c1ccc2c(c1)OCO2 (stereo not drawn)", "Plasmodium falciparum", 0),
    ("C=C(C#N)C(O)c1ccc([N+](=O)[O-])cc1 (stereo not drawn)", "Plasmodium falciparum", 83),
]

* * *

tested on: Plasmodium falciparum; assay: In vitro antimalarial activity for Plasmodium falciparum at 5 uM/well dose at 24 hrs in Schizont maturation assay; type: functional
Measured inhibition at 5 µM accompanies every entry in the list below.
Experimental Endpoint: inhibition at 5 µM (%)

# Compound, Numeric Result
rows = [
    ("C=C(C(=O)OC)C(O)c1cccnc1 (stereo unspecified)", 100),
    ("C=C(C(=O)OC)C(O)c1ccc([N+](=O)[O-])cc1 (stereo unspecified)", 18.4),
    ("C=C(C#N)C(O)c1cc(OC)c(OC)c(OC)c1 (stereo unspecified)", 82.4),
    ("C=C(C#N)C(O)c1ccccc1 (stereo unspecified)", 65.7),
    ("COC(=O)C(CNC(C)C)C(O)c1ccc([N+](=O)[O-])cc1 (stereo unspecified)", 29),
    ("C=C(C(=O)OC)C(O)c1ccccc1 (stereo unspecified)", 93),
    ("C=C(C#N)C(O)c1cccnc1 (stereo unspecified)", 100),
    ("C=C(CCC(C)=O)C(C)=O", 100),
    ("C=C(C#N)C(O)c1ccc([N+](=O)[O-])cc1 (stereo unspecified)", 100),
    ("C=C(C#N)C(O)c1ccc(OC)c(OC)c1 (stereo unspecified)", 21),
    ("C=C(C#N)C(OCCC#N)c1ccc2c(c1)OCO2 (stereo unspecified)", 64),
]

* * *

# Mean survival time values compiled below
system: Mus musculus; assay: Antimalarial activity against Plasmodium berghei evaluated in terms of mean survival time for mice (Mus musculus) at a dose of 40 mg/kg; type: functional

# Compound, Unit Symbol, Mean survival time
data = [
    ("C=C(C#N)C(O)c1cc(OC)c(OC)c(OC)c1 (stereo not drawn)", "days", 7.6),
    ("C=C(C#N)C(O)c1ccc([N+](=O)[O-])cc1 (stereo not drawn)", "days", 11.8),
    ("C=C(C#N)C(OCCC#N)c1ccc2c(c1)OCO2 (stereo not drawn)", "days", 9.2),
    ("C=C(C#N)C(O)/C=C(\\C)CCC=C(C)C (stereo not drawn)", "days", 8.6),
    ("C=C(C#N)C(O)c1cccnc1 (stereo not drawn)", "days", 8.8),
    ("C=C(C(=O)OC)C(O)c1ccccc1 (stereo not drawn)", "days", 7),
    ("COC(=O)C(CNC(C)C)C(O)c1ccc([N+](=O)[O-])cc1 (stereo not drawn)", "days", 8.2),
    ("C=C(C(=O)OC)C(O)/C=C(\\C)CCC=C(C)C (stereo not drawn)", "days", 8.4),
]

* * *

test system: Plasmodium falciparum; assay: In vitro inhibition of Plasmodium falciparum at 25 uM/well dose at 72 hrs in total parasite growth assay; format: functional
Experimental Endpoint: PGI (%)

# Compound, Unit Symbol, Numeric Result
data = [
    ("C=C(C#N)C(O)c1ccco1 (stereo unspecified)", "%", 84),
    ("C=C(C#N)C(O)c1ccccc1 (stereo unspecified)", "%", 85),
    ("C=C(CCC(C)=O)C(C)=O", "%", 100),
    ("C=C(C#N)C(O)c1ccc([N+](=O)[O-])cc1 (stereo unspecified)", "%", 100),
    ("C=C(C#N)C(O)c1cc(OC)c(OC)c(OC)c1 (stereo unspecified)", "%", 100),
    ("C=C(C(=O)OC)C(O)c1ccco1 (stereo unspecified)", "%", 100),
]

* * *

test system: Mus musculus; test: Antimalarial activity against Plasmodium berghei evaluated in terms of mean survival time for mice (Mus musculus) at a dose of 160 mg/kg; format: functional
Collected Mean survival time values appear next to each entry.
Experimental Endpoint: Mean survival time

# Compound, Result
records = [
    ("COC(=O)C(CNC(C)C)C(O)c1ccc([N+](=O)[O-])cc1 (stereo not drawn)", "11.8 days"),
    ("C=C(C(=O)OC)C(O)c1ccccc1 (stereo not drawn)", "12 days"),
    ("C=C(C#N)C(OCCC#N)c1ccc2c(c1)OCO2 (stereo not drawn)", "14.2 days"),
    ("C=C(C#N)C(O)/C=C(\\C)CCC=C(C)C (stereo not drawn)", "11.6 days"),
    ("C=C(C#N)C(O)c1ccc([N+](=O)[O-])cc1 (stereo not drawn)", "14.4 days"),
    ("C=C(C(=O)OC)C(O)/C=C(\\C)CCC=C(C)C (stereo not drawn)", "11.4 days"),
    ("C=C(C#N)C(O)c1cccnc1 (stereo not drawn)", "15.2 days"),
    ("C=C(C#N)C(O)c1cc(OC)c(OC)c(OC)c1 (stereo not drawn)", "12.4 days"),
]

* * *

test system: Plasmodium falciparum; assay: In vitro antimalarial activity for Plasmodium falciparum at 1 uM/well dose at 24 hrs in Schizont maturation assay; assay type: functional
inhibition at 1 µM of 40% or higher: y. Under 40%: n.

# Compound, Qualitative Label
rows = [
    ("C=C(C#N)C(O)c1cccnc1 (configuration not stated)", "y"),
    ("COC(=O)C(CNC(C)C)C(O)c1ccc([N+](=O)[O-])cc1 (configuration not stated)", "n"),
    ("C=C(C#N)C(O)c1ccccc1 (configuration not stated)", "n"),
    ("C=C(C#N)C(O)c1ccc(OC)c(OC)c1 (configuration not stated)", "n"),
    ("CCN(CC)CCCC(C)Nc1ccnc2cc(Cl)ccc12.O=P(O)(O)O.O=P(O)(O)O (configuration not stated) [CHLOROQUINE PHOSPHATE]", "n"),
    ("C=C(C(=O)OC)C(O)c1ccccc1 (configuration not stated)", "y"),
    ("C=C(CCC(C)=O)C(C)=O", "y"),
    ("C=C(C(=O)OC)C(O)c1cccnc1 (configuration not stated)", "y"),
    ("C=C(C(=O)OC)C(O)c1ccc([N+](=O)[O-])cc1 (configuration not stated)", "n"),
    ("C=C(C#N)C(O)c1cc(OC)c(OC)c(OC)c1 (configuration not stated)", "y"),
    ("C=C(C#N)C(O)c1ccc([N+](=O)[O-])cc1 (configuration not stated)", "y"),
    ("C=C(C#N)C(OCCC#N)c1ccc2c(c1)OCO2 (configuration not stated)", "y"),
]

* * *

test system: Plasmodium falciparum; assay: In vitro inhibition of Plasmodium falciparum at 20 uM/well dose at 72 hrs in total parasite growth assay; format: functional
Experimental Endpoint: PGI (%)

# Molecule, Numeric Result
measured = [
    ("C=C(C#N)C(OCCC#N)c1ccc2c(c1)OCO2 (centres undefined)", 95),
    ("C=C(C#N)C(O)c1ccc([N+](=O)[O-])cc1 (centres undefined)", 100),
    ("C=C(C#N)C(O)c1cccnc1 (centres undefined)", 100),
    ("C=C(C#N)C(O)c1cc(OC)c(OC)c(OC)c1 (centres undefined)", 100),
]

These measurements were taken from ChEMBL document CHEMBL1132520.
